The reported numbers originate from the supplement of paper PMC9170038.

Tested on: MS2 coat protein
procedure.text: apparent KD of MS2 coat protein; designed switch direction (-1 OFF switch, 1 ON switch): 1; higher = weaker reporter binding
conditions.used: input ligand: FMN 200 uM
measure: apparent KD of MS2 coat protein (µM)

- sequence.text: "GUGGUCAGACAUGAGGAUCACCCAUGUGGAAUAAAUAAGGGAGAGGAUAUAAAAUAUAGGAUAUAUUAGAAGGCUCGGUUGGUG (Eterna round: R96, puzzle: Same State NG 3)"
  value.measured: 0.0957
- sequence.text: "UCGGGCGUACUUGCUGACAUGAGGAUCACCCAUGUGAUUGGGAAGGAUAUGGUUCCGUUUCGGUUCCAGAAGGUCCUGGGUGCU [salish99_SSNG3_r04_313] (Eterna round: R96, puzzle: Same State NG 3)"
  value.measured: 0.482
- sequence.text: "CCAACAUACAAUUUAAGAUCACAUGAGGAUCACCCAUGUAUGCAGGAUAUCAGCUCGUGUAGAGCUGAGAAGGGCAAUUUAAUU [SSNG3/1-A4] (Eterna round: R96, puzzle: Same State NG 3)"
  value.measured: 0.103
- sequence.text: "UUGAAGAAUUAAGGAUAUCGAGUCGUCAGAUUAUACAUGAGGAUCACCCAUGUGGGUUGCGGUAUCGAGAAGGUAAAUUACAAG [JL JR Sub099 mod 5] (Eterna round: R96, puzzle: Same State NG 2)"
  value.measured: 0.0375
- sequence.text: "GUGGUCAGACAUGAGGAUCACCCAUGUGGAAUAAAUAAGGUCAAGGAUAUGGAAUAUAGGAUAUACCAGAAGGUGAGGUUGGUG (Eterna round: R96, puzzle: Same State NG 3)"
  value.measured: 0.245
